pKd values, listed per item
biological target: N-terminally FLAG-tagged PARP2 (amino acids 1-583) (Homo sapiens); construct: N-terminally FLAG-tagged PARP2 (amino acids 1-583); assay: PARP2 probe displacement HTRF assay; type: binding; settings: binned Kd, PARP2 probe displacement HTRF
Sequence (Q9UGN5 whole entry, the tested form may be a part): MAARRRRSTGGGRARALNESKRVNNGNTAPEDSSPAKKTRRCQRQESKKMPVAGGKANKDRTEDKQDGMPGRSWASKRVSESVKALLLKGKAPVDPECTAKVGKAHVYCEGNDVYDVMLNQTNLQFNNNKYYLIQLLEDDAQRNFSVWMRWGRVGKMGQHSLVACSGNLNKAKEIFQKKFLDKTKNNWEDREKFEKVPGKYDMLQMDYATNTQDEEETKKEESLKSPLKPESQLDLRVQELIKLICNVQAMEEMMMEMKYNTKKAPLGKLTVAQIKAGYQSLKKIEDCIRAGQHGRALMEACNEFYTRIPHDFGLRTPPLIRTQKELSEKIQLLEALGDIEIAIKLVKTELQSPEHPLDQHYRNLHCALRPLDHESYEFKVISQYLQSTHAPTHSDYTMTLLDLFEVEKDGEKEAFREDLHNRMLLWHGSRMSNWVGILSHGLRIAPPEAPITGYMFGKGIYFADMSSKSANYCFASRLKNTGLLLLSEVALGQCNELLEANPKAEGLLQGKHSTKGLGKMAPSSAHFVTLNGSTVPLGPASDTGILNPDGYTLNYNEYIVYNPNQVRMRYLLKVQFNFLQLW
pKd: −log10 of the molar value.

# COMPOUND, pKd
rows = [
    ("CNC(=O)c1ccc(N2CCC(N3CCC(c4nc5onc(C)c5c(=O)[nH]4)C3)CC2)cn1 (single isomer, unassigned) [Compound 149b]", "< 5.00"),
    ("CNC(=O)c1ccc(N2CCC(N3CCC(c4ccc(COC)c(=O)[nH]4)C3)CC2)cn1 (single isomer, unassigned) [Compound 207a]", "< 5.00"),
    ("CCNC(=O)c1ccc(N2CCC(N3CCC(c4nc5ccccc5c(=O)[nH]4)C3)CC2)cn1 (single isomer, unassigned) [Compound 111a]", "6.00 to 7.00"),
    ("CNC(=O)c1ccc(N2CCC(N3CCC(c4cc5c(C(F)(F)F)cccc5c(=O)[nH]4)C3)CC2)cn1 (single isomer, unassigned) [Compound 167b]", "6.00 to 7.00"),
]

Give the measured pKd for CNC(=O)c1ccc(N2CCC(N3CCC(c4ncc(C)c(=O)[nH]4)C3)CC2)cn1 (single isomer, unassigned) [Compound 35b]
< 5.00

Give the measured pKd for N#Cc1ccc(N2CCC(N3CCC(c4nc5ccccc5c(=O)[nH]4)C3)CC2)cc1 (single isomer, unassigned) [Compound 34a]
6.00 to 7.00

Give the measured pKd for CNC(=O)c1ccc(N2CCC(N3CCC(c4[nH]c(=O)c5ccccc5c4Cl)C3)CC2)cn1 (single isomer, unassigned) [Compound 219a]
7.00 to 8.00
